Target: human activated kallikrein enzyme (plasma kallikrein) (Homo sapiens (Human), UniProt P03952)
Sequence (P03952 391-638): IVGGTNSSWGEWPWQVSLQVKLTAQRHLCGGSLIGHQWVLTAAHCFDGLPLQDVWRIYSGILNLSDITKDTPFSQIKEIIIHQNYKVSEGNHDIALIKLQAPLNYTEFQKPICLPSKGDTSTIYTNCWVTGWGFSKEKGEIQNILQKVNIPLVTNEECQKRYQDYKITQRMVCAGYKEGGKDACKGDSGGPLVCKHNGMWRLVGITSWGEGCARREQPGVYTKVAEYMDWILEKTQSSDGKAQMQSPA
Sequence (P03952 20-390 partner): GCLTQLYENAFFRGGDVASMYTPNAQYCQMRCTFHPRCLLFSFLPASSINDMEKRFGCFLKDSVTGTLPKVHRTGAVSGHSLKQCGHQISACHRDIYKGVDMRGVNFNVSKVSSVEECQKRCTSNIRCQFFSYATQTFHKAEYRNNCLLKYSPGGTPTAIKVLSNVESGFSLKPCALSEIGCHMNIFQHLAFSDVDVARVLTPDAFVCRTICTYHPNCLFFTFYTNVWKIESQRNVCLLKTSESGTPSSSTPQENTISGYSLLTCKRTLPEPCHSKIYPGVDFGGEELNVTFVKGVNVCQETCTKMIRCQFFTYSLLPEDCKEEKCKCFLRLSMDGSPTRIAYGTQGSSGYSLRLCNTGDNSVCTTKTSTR
Test: Inhibition of human activated plasma kallikrein, fluorogenic peptide substrate assay, 500 pM enzyme format
Format: biochemical
Conditions: 500 pM activated kallikrein enzyme, 300 uM Pro-Phe-Arg-7-amido-4-methylcoumarin substrate, 30 min preincubation, 10 min at RT; read-out: Primary Dose Response Assay: Average EC50
experimental readout: EC50

Reference set (8 entries):
{"compound": "O=C(NCc1ncn2ccc(Br)cc12)c1cnn(Cc2cn3c(F)c(C4CC4)ccc3n2)c1", "EC50": "< 1 nM"}
{"compound": "CC(Cc1cc(C2CC2)cn2cc(Cn3cc(C(=O)NCc4ncn5ccc(Cl)c(F)c45)nn3)nc12)C(=O)O (stereo not drawn) [Example I-245b]", "EC50": "< 1 nM"}
{"compound": "O=C(NCc1ncn2ccc(C3CC3)cc12)c1cnn(Cc2cn3cc(C4CC4)ccc3n2)c1", "EC50": "100 to 2000 nM"}
{"compound": "CCc1ccn2cnc(CNC(=O)c3cnn(Cc4cn5cc(C6CC6)ccc5n4)c3)c2c1", "EC50": "10 to 100 nM"}
{"compound": "O=C(NCc1ncn2ccc(Cl)cc12)c1cnn(Cc2cn3cc(C4CC4)cc(C4(O)COC4)c3n2)c1", "EC50": "< 1 nM"}
{"compound": "O=C(O)Cn1c(Cn2cc(C(=O)NCc3ncn4ccc(Cl)c(F)c34)nn2)cc2cc(C3CC3)ccc21", "EC50": "10 to 100 nM"}
{"compound": "Cc1cccc2nc(Cn3cc(C(=O)NCc4ncn5ccc(Cl)cc45)cn3)cn12", "EC50": "10 to 100 nM"}
{"compound": "O=C(NCc1ncn2ccc(Cl)c(F)c12)c1cn(Cc2cc3ccc(Cl)cc3o2)nn1", "EC50": "100 to 2000 nM"}

Read the next record carefully.
Consider the compound shown here: O=C(NCCc1ncn2ccc(Cl)cc12)c1cnn(Cc2cn3cc(C4CC4)ccc3n2)c1 What is its recorded EC50?
10 to 100 nM

----------
EC50 listing for selected compounds.
Biological target: human activated kallikrein enzyme (plasma kallikrein) (Homo sapiens (Human), UniProt P03952)
Assay: Inhibition of human activated plasma kallikrein, fluorogenic peptide substrate assay, 500 pM enzyme format
Format: biochemical
Conditions: 500 pM activated kallikrein enzyme, 300 uM Pro-Phe-Arg-7-amido-4-methylcoumarin substrate, 30 min preincubation, 10 min at RT; read-out: Primary Dose Response Assay: Average EC50

Reference set (3 entries):
{"compound": "CC1CC1c1ccc2nc(Cn3cc(C(=O)NCc4ncn5ccc(Cl)cc45)cn3)cn2c1 (stereo not shown)", "EC50": "< 1 nM"}
{"compound": "Cc1ccc2nc(Cn3cc(C(=O)NCc4ncn5ccc(Cl)cc45)cn3)cn2c1C", "EC50": "10 to 100 nM"}
{"compound": "CCOC(=O)Cc1cc(C2CC2)cn2cc(Cn3cc(C(=O)NCc4ncn5ccc(Br)c(F)c45)cn3)nc12", "EC50": "< 1 nM"}

Consider the compound shown here: O=C(O)c1ccn(Cc2cc(C3CC3)cn3cc(Cn4cc(C(=O)NCc5ncn6ccc(Cl)c(F)c56)nn4)nc23)n1 What is its recorded EC50?
< 1 nM

----------
Biological target: human activated kallikrein enzyme (plasma kallikrein) (Homo sapiens (Human))
Assay: Inhibition of human activated plasma kallikrein, fluorogenic peptide substrate assay, 500 pM enzyme format
Format: biochemical
Details: 500 pM activated kallikrein enzyme, 300 uM Pro-Phe-Arg-7-amido-4-methylcoumarin substrate, 30 min preincubation, 10 min at RT; read-out: Primary Dose Response Assay: Average EC50
EC50 listing for selected compounds.

Reference set (4 entries):
{"compound": "COC(=O)CCc1c(C(=O)NCc2ncn3ccc(Cl)cc23)cnn1Cc1cn2cc(C3CC3)ccc2n1 [Example I-82]", "system tested": "human activated kallikrein enzyme (plasma kallikrein) (Homo sapiens (Human))", "EC50": "10 to 100 nM"}
{"compound": "O=C(NCc1ncn2ccc(Cl)cc12)c1cnn(Cc2cn3cc(C4CC4)cnc3n2)c1 [Example I-129]", "system tested": "human activated kallikrein enzyme (plasma kallikrein) (Homo sapiens (Human))", "EC50": "< 1 nM"}
{"compound": "O=C(NCc1ncn2ccc(Cl)c(F)c12)c1cn(Cc2cn3cc(C4CC4)cnc3n2)nn1 [Example I-165]", "system tested": "human activated kallikrein enzyme (plasma kallikrein) (Homo sapiens (Human))", "EC50": "< 1 nM"}
{"compound": "N#Cc1cc(C2CC2)cn2cc(Cn3cc(C(=O)NCc4ncn5ccc(Cl)c(F)c45)nn3)nc12 [Example I-149]", "system tested": "human activated kallikrein enzyme (plasma kallikrein) (Homo sapiens (Human))", "EC50": "< 1 nM"}

Lab note: need EC50 for O=C(NCc1ncn2ccc(Cl)c(F)c12)c1cn(Cc2cn3cc(Cl)c(Cl)cc3n2)nn1 [Example I-188] on human activated kallikrein enzyme (plasma kallikrein) (Homo sapiens (Human)), anyone have it?
1 to 10 nM

Lab note: need EC50 for O=C(NCc1ncn2ccc(Cl)cc12)c1cnn(Cc2cn3cc(C4CC4)c(Cl)cc3n2)c1 [Example I-24] on human activated kallikrein enzyme (plasma kallikrein) (Homo sapiens (Human)), anyone have it?
1 to 10 nM

Lab note: need EC50 for O=C(NCc1ncn2ccc(Cl)cc12)c1nnc(Cc2cn3cc(C4CC4)ccc3n2)[nH]1 [Example I-161] on human activated kallikrein enzyme (plasma kallikrein) (Homo sapiens (Human)), anyone have it?
1 to 10 nM

Lab note: need EC50 for O=C(NCc1ncn2ccc(Br)cc12)c1cnn(Cc2cn3cc(C(F)(F)F)ccc3n2)c1 [Example I-19] on human activated kallikrein enzyme (plasma kallikrein) (Homo sapiens (Human)), anyone have it?
1 to 10 nM

Lab note: need EC50 for O=C(NCc1ncn2ccc(Br)c(F)c12)c1nnn(Cc2cn3cc(C4CC4)ccc3n2)n1 [Example I-135] on human activated kallikrein enzyme (plasma kallikrein) (Homo sapiens (Human)), anyone have it?
< 1 nM

Lab note: need EC50 for CC(F)c1cc(C2CC2)cn2cc(Cn3cc(C(=O)NCc4ncn5ccc(Cl)c(F)c45)nn3)nc12 (stereo not drawn) [Example I-213] on human activated kallikrein enzyme (plasma kallikrein) (Homo sapiens (Human)), anyone have it?
< 1 nM

Lab note: need EC50 for O=C(NCc1ncn2ccc(Cl)c(F)c12)c1cn(Cc2nc3cc(C4CC4)cc(Cl)n3n2)nn1 [Example I-255] on human activated kallikrein enzyme (plasma kallikrein) (Homo sapiens (Human)), anyone have it?
< 1 nM

Lab note: need EC50 for O=C(NCc1ncn2ccc(Cl)cc12)c1cnn(Cc2cn3cc(C4CC4)c(F)cc3n2)c1 [Example I-21] on human activated kallikrein enzyme (plasma kallikrein) (Homo sapiens (Human)), anyone have it?
1 to 10 nM

Lab note: need EC50 for O=C(NCc1ncn2ccc(Cl)c(F)c12)c1cn(Cc2cn3cc(C4CC4)cc(Cn4cccn4)c3n2)nn1 [Example I-201] on human activated kallikrein enzyme (plasma kallikrein) (Homo sapiens (Human)), anyone have it?
< 1 nM

Lab note: need EC50 for O=C(NCc1ncn2ccc(Cl)c(F)c12)c1nnc(C(F)(F)c2cn3cc(C4CC4)ccc3n2)o1 [Example I-243] on human activated kallikrein enzyme (plasma kallikrein) (Homo sapiens (Human)), anyone have it?
1 to 10 nM

Lab note: need EC50 for O=C(NCc1ncn2ccc(Cl)cc12)c1cnn(Cc2cn3c(Cl)c(C4CC4)ccc3n2)c1 [Example I-23] on human activated kallikrein enzyme (plasma kallikrein) (Homo sapiens (Human)), anyone have it?
< 1 nM

Lab note: need EC50 for O=C(NCc1ncn2ccc(Br)cc12)c1nnc(Cc2cn3cc(C4CC4)ccc3n2)o1 [Example I-52] on human activated kallikrein enzyme (plasma kallikrein) (Homo sapiens (Human)), anyone have it?
< 1 nM

Lab note: need EC50 for Cc1c(C)n(C)c2ccc(Cn3cc(C(=O)NCc4ncn5ccc(Cl)c(F)c45)nn3)cc12 [Example I-269] on human activated kallikrein enzyme (plasma kallikrein) (Homo sapiens (Human)), anyone have it?
1 to 10 nM
